The measured values listed here are drawn from ChEMBL document CHEMBL3856185.

Molecular target: Estrogen receptor (Homo sapiens)
Sequence (P03372 whole entry): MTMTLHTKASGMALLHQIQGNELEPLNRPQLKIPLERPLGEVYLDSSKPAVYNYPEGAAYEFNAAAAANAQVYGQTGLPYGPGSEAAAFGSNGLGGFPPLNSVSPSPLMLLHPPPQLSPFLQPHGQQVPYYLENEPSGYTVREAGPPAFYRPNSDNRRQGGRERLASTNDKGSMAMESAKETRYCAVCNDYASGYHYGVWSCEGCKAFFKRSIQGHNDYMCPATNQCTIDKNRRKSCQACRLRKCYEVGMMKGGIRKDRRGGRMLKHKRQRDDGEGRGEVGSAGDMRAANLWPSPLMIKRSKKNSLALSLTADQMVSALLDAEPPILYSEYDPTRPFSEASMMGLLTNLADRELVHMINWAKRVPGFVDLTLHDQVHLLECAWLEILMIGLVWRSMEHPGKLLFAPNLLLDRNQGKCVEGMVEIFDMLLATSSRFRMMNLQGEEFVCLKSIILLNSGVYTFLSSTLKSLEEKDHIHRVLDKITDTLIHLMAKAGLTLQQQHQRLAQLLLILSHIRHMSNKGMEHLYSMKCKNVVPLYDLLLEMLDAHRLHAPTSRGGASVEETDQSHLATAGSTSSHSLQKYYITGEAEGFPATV
Assay: Agonist activity at ERalpha in estrogen-sensitive human T47D cells assessed as cell proliferation at 0.01 uM after 7 days by MTS assay
Assay type: cell-based
Settings: 168 h
What Activity was measured for each of the following?
Only the number, expressed in %, is required.

Quick one: Activity of O=C(c1ccc(CN(Cc2ccc(O)cc2)Cc2ccco2)cc1)N1CCc2ccc(O)cc2C1 ?
108.2

And what about the compound O=C(c1ccc(CN(Cc2ccc(OCCCN3CCCCC3)cc2)Cc2ccco2)cc1)N1CCc2ccc(O)cc2C1 ?
95.6

Another compound to look at: O=C(c1ccc(CN(Cc2ccc(OCCCN3CCCCC3)cc2)Cc2ccccn2)cc1)N1CCc2ccc(O)cc2C1
105.9

Then this compound: O=C(c1ccc(CN(Cc2ccc(Br)cc2)Cc2ccco2)cc1)N1CCc2ccc(O)cc2C1
106.3

Repeat for the following compound: O=C(c1ccc(CN(CCCn2ccnc2)Cc2ccco2)cc1)N1CCc2ccc(O)cc2C1
94.9

Same lookup for COc1ccc(CN(Cc2ccc(C(=O)N3CCc4ccc(O)cc4C3)cc2)Cc2ccccn2)cc1 , please.
105.6

Same for Cc1ccc(CN(Cc2ccc(C(=O)N3CCc4ccc(O)cc4C3)cc2)Cc2ccccn2)s1
100.6

Another compound: Cc1ccc(CN(Cc2ccc(C(=O)N3CCc4ccc(O)cc4C3)cc2)Cc2ccco2)s1
97.1

Quick one: O=C(c1ccc(CN(CCCn2ccnc2)Cc2ccccn2)cc1)N1CCc2ccc(O)cc2C1
102.8

Same question for O=C(c1ccc(CN(Cc2ccco2)Cc2ccccc2OCCCN2CCCCC2)cc1)N1CCc2ccc(O)cc2C1 please.
96.8

Now this one: O=C(c1ccc(CN(Cc2ccccn2)Cc2ccco2)cc1)N1CCc2ccc(O)cc2C1
104.1

Item: O=C(c1ccc(CN(Cc2ccccn2)Cc2ccccc2OCCCN2CCCCC2)cc1)N1CCc2ccc(O)cc2C1
102.8

Now give it for O=C(c1ccc(CN(CCN2CCOCC2)Cc2ccco2)cc1)N1CCc2ccc(O)cc2C1 too.
108.2

====

Give measured Activity for each item. Keep answers brief.
Biological target: UniProtKB P03372
Test: Agonist activity at ERalpha in estrogen-sensitive human T47D cells assessed as cell proliferation at 1 uM after 7 days by MTS assay
Assay type: cell-based
Details: 168 h
State just the number; it will be interpreted in %.

Recorded Activity for O=C(c1ccc(CN(Cc2ccc(Br)cc2)Cc2ccco2)cc1)N1CCc2ccc(O)cc2C1 , please?
59.2

What do you get for O=C(c1ccc(CN(Cc2ccccn2)Cc2ccccc2OCCCN2CCCCC2)cc1)N1CCc2ccc(O)cc2C1 ?
37.1

Moving on to Cc1ccc(CN(Cc2ccc(C(=O)N3CCc4ccc(O)cc4C3)cc2)Cc2ccco2)s1
96.8

Check COc1ccc(CN(Cc2ccc(C(=O)N3CCc4ccc(O)cc4C3)cc2)Cc2ccccn2)cc1 too.
100.9

Note, next up: O=C(c1ccc(CN(CCCn2ccnc2)Cc2ccco2)cc1)N1CCc2ccc(O)cc2C1
114.6

Next record, please: Cc1ccc(CN(Cc2ccc(C(=O)N3CCc4ccc(O)cc4C3)cc2)Cc2ccccn2)s1
78.9

Check O=C(c1ccc(CN(Cc2ccc(O)cc2)Cc2ccco2)cc1)N1CCc2ccc(O)cc2C1 too.
200.3

// repeat for O=C(c1ccc(CN(Cc2ccc(OCCCN3CCCCC3)cc2)Cc2ccccn2)cc1)N1CCc2ccc(O)cc2C1 and report
60.7
